Sourced from ChEMBL document CHEMBL1201862

Molecular target: Cysteine protease ATG4B (Homo sapiens, UniProt Q9Y4P1);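 also: Fluorescence-based dose-response confirmation assay measuring inhibition of ATG4B activity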
Sequence (Q9Y4P1 whole entry): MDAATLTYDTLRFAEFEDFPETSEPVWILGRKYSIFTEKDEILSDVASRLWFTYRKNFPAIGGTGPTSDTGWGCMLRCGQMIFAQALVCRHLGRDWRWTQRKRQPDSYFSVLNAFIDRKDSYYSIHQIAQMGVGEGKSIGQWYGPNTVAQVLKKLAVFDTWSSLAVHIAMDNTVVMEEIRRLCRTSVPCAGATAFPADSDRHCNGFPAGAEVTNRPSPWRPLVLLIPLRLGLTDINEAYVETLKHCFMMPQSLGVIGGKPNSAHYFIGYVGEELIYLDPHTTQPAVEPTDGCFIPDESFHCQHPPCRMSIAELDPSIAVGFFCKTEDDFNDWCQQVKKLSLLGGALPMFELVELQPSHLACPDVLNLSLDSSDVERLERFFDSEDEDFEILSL
Type: functional
Activity calls are given as the source filed them.
Would you kindly list IC50 for each of these compounds?

# example entries with known answers
In [3]: df
Out[3]:
                                   compound  property_measured  experimental_value
0  O=S(=O)(c1ccc(F)cc1)c1nc(-c2ccccc2F)oc1N1CCCCC1               IC50    19.1 µM (active)
1  O=C(O)C1Nc2c(Cl)cc(Cl)cc2C2C=CCC12 (stereo not given)               IC50    2.58 µM (active)
2  CC(C)c1ccc(NC2CCCN(C(=O)c3cnn(C(C)C)c3)C2)cc1 (stereo not given)               IC50    9.04 µM (active)
3  O=C(CSc1nc2ccccc2c(=O)n1Cc1ccccc1)Nc1ccc(Br)cc1C(=O)O               IC50    13.9 µM (active)

Here is another compound to look at.
Entry under test: S=C(NCCSCc1ccc(Cl)c(Cl)c1)Nc1ccccc1 . Its IC50 was 6.67 µM (active)

----------
Target: Corticotropin-releasing factor receptor 2/Corticotropin-releasing factor-binding protein (Homo sapiens, UniProt P24387+Q13324)
Sequence (Q13324 whole entry): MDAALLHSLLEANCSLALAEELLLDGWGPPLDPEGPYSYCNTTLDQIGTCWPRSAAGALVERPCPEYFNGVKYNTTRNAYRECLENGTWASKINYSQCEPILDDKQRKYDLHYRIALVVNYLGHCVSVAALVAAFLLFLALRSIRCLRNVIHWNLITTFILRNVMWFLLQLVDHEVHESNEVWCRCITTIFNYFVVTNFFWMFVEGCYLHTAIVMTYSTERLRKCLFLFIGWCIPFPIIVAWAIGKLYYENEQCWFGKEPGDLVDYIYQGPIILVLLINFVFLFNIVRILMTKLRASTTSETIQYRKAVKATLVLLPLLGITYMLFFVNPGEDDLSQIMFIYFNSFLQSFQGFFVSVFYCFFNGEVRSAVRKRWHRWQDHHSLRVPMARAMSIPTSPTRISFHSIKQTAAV
Sequence (P24387 whole entry): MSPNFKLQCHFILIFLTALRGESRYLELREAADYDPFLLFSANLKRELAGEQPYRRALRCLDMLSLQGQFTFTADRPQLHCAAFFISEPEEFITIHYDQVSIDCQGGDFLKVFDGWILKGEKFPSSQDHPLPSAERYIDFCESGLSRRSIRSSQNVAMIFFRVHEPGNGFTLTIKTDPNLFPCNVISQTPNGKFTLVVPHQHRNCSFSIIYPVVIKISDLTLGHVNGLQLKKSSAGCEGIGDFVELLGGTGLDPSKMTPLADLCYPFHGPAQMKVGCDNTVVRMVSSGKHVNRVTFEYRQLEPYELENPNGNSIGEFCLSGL
Assay: activators of CRF receptor 2 with binding protein – uHTS hits, confirmation (AID 602473)
Format: functional
Details: read-out: EC50_Mean
Activity calls are given as the source filed them.
Pick from 1 (active), 0 (inactive) when you respond.

The examples below pair each entry with its known result.
>>> df
                                   compound  label_value
0  CCCCCNC1=CC(=O)CC(c2ccccc2)C1 (configuration not stated)            0
1  Cc1cc(-n2c(C)cc(C(=O)CSc3nc4ccccc4c(=O)n3Cc3ccco3)c2C)no1            0
2                    Cc1cc(N2CCCCC2)nc(N)n1            1
3   O=C1NC(=S)S/C1=C\c1cccc([N+](=O)[O-])c1            1

Per the assay record, what outcome was assigned to C=CCOc1ccc(/C=C2\SC(=S)N(C(C(=O)O)c3ccccc3)C2=O)cc1 (configuration not stated) ?
1

----------
Kindly supply the reported IC50 values for the records listed here.
Molecular target: Steroidogenic factor 1 (Homo sapiens, UniProt Q13285)
Sequence (Q13285 whole entry): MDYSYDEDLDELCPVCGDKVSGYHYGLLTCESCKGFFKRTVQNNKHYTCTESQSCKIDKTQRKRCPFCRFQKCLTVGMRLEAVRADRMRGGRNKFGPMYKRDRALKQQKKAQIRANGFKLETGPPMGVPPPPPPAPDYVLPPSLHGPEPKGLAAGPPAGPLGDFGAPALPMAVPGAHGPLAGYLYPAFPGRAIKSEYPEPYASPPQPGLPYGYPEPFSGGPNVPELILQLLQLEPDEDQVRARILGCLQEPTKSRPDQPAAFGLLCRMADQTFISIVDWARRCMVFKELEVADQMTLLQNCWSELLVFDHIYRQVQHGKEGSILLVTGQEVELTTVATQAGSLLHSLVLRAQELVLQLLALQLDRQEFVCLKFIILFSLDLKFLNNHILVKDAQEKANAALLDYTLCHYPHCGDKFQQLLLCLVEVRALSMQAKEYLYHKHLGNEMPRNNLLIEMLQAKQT
Test: Counterscreen for inverse agonists of the liver receptor homolog-1 (LRH-1; NR5A2): Luminescence-based cell-based high throughput dose response assay to identify inverse agonists of the Steroidogenic Factor 1 Nuclear Receptor (SF1; NR5A1).
Format: functional
Calls of active or inactive are those of the source.

In [3]: df
Out[3]:
                                   compound                                 tested_on  experimental_value
0  CCOc1ccc(Cc2nnc(SCC(=O)Nc3ccc(C(C)=O)cc3)nc2O)cc1  Steroidogenic factor 1 (Homo sapiens, UniProt Q13285)     5.1 µM (active)
1  CCOc1ccc(CCNC(=O)CN2C(=O)NC3(CCc4ccccc43)C2=O)cc1OCC (centres undefined)  Steroidogenic factor 1 (Homo sapiens, UniProt Q13285)    4.33 µM (active)
2  COc1ccc(CCNC(=O)CN2C(=O)NC3(CCCCC3)C2=O)cc1  Steroidogenic factor 1 (Homo sapiens, UniProt Q13285)    1.74 µM (active)

Here is the next item to consider.
Lab book: IC50 of Cc1ccc(C)c(NC(=O)CSc2nnc(-c3[nH]nc4ccccc34)o2)c1 noted as 5.07 µM (active)
